Source of measurements: PubChem BioAssay (NCI)

# Tested on: SK-MEL-5 melanoma
# Assay: NCI-60 one-dose screen, 48 h
# Stated Conditions: 10 µM unless noted
Compounds without any hit were thinned out: in the full panel of roughly 83,000, 20% have a hit. The source made the active and inactive calls. Rule for the calls: active = growth percent below 10; inactive = the rest.
Select the matching outcome among 1.0 for active, 0.0 for inactive

Worked cases, answers included:
[[record]]
compound = "COc1cc(N2C(=O)c3nccnc3C2=O)cc(OC)c1OC"
label = 0.0

[[record]]
compound = "CCCCOc1nc2ccccc2cc1C1CNC(=O)c2ccccc2N1 (stereo unspecified)"
label = 0.0

[[record]]
compound = "Cc1cccc(Cc2cnc(NC(=O)/C=C/c3ccco3)s2)c1"
label = 0.0


(Q) Name the outcome recorded for CCN(CC)CCCNc1ccc(Nc2ccc(OC)cc2)cc1 in the assay.
(A) 0.0

(Q) Field: outcome | Entry: C=C(C)[C@@H]1CC[C@]2(C)[C@H](CC=C3[C@@H]4CC(C)(C)CC[C@]4(C(N)=O)CC[C@]32C)[C@@]1(C)CCC#N
(A) 1.0

(Q) How did this test come out for Cc1cccc(-c2nc(N(C)c3ccc4ncsc4c3)c3ccccc3n2)n1 ?
(A) 0.0

(Q) How was COc1cccc(-c2nn(-c3ccccc3)cc2-c2ccnc(NCCCNC(=O)c3ccc(F)cc3)c2)c1 classified in this test?
(A) 1.0

(Q) Record request — test call for CN(C)c1ccc(-c2ccc3[nH]c(=O)nc(-c4ccccc4)c3c2)cn1
(A) 0.0

(Q) Entry O=C(N/N=C/c1ccncc1)c1ccc(C(F)(F)F)nc1Nc1cccc(C(F)(F)F)c1 : call = ?
(A) 0.0

(Q) Record lookup: outcome of this test for CCOC(=O)c1c2c(n3ccc(NC(=O)OC(C)(C)C)cc13)C(=O)c1ncccc1C2=O ?
(A) 1.0

(Q) # outcome recorded in this test, key = c1ccc(-c2nc([P+](c3ccccc3)(c3ccccc3)c3ccccc3)c(N3CCOCC3)o2)cc1
(A) 1.0

(Q) How was N#CC1=C(c2ccc(Br)cc2)NC(SCC(=O)c2ccc(Br)cc2)NC1=O (stereo unspecified) classified in this test?
(A) 0.0

(Q) Hi, do you know how Cc1cc(C)c(-c2c(C)cc(C)cc2CBr)c(CBr)c1 came out in this test?
(A) 0.0

(Q) How was CC/C=C\C[C@H](O)C/C=C1/C(=O)C=C[C@@H]1C/C=C\CCCC(=O)OC classified in this test?
(A) 1.0

(Q) Outcome? COc1ccc(-c2cc(-c3ccc(Nc4nc(Nc5ccc(Cl)cc5)nc(Nc5ccc(Cl)cc5)n4)cc3)nc(N)c2C#N)cc1
(A) 1.0

(Q) Dear all, I need the recorded test outcome for N/C(=N\c1nc2ccccc2s1)NC(=O)Nc1cccc(Cl)c1 , thank you.
(A) 0.0

(Q) Hi, sorry to bother you, what did the test record for O=C(CCCCCCSc1nc(-c2ccccc2)cc(-c2ccc(Cl)cc2)n1)NO ?
(A) 1.0

(Q) Please share the test call associated with O=C(O)CN1C(=O)CCC1=O .
(A) 0.0

(Q) Assay outcome for NC(=N\N=C/c1ccccc1[N+](=O)[O-])/C(N)=N\N=C/c1ccccc1[N+](=O)[O-] : what was it?
(A) 0.0
